Trimeric HA Binding: RLU values by entry
Target: recombinant soluble homotrimeric HA, A/Hong Kong/156/97 H5N1 (Influenza A virus A/Hong Kong/156/97 (H5N1))
Assay: microarray, transfection SN IgG, trimeric HA
Details: remark: other sources report otherwise
Report as a plain number; the unit RLU is understood.

// worked examples, Trimeric HA Binding: RLU included
TCN-557 (5081_A04) (antibody, V domains shown) VH: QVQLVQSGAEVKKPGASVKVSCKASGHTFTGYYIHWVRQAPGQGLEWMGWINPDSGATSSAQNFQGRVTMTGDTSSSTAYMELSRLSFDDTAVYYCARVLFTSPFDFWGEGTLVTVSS VL: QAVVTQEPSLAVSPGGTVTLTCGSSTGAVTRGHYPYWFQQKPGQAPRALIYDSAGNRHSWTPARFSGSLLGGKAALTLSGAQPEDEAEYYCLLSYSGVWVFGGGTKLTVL	27100
TCN-523 (5248_A17) (antibody, V domains shown) VH: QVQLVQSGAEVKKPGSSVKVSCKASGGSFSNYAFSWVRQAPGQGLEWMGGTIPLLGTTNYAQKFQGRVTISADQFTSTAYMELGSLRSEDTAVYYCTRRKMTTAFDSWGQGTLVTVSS VL: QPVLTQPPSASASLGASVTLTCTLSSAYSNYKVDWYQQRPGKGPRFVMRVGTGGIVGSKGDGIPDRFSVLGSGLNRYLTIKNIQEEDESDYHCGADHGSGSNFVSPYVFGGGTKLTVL	28400

Entry TCN-551 (5243_D01) (antibody, V domains shown) VH: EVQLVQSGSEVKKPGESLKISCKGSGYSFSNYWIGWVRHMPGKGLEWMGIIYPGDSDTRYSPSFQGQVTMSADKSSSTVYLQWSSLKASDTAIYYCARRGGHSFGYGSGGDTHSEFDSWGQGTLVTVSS VL: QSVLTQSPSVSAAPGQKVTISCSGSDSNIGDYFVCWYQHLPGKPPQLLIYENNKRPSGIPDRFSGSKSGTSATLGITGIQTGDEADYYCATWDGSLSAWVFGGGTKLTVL : reported Trimeric HA Binding: RLU = ?
792

Value lookup for Trimeric HA Binding: RLU; key = TCN-552 (5249_I23) (antibody, V domains shown) VH: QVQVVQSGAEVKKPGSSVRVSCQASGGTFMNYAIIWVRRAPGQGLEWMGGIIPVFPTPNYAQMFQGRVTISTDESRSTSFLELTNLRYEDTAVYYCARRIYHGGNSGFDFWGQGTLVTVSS VL: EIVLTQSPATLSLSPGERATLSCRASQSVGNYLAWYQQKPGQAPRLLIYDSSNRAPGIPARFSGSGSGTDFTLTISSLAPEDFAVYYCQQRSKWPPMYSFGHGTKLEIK
36300

Any idea what Trimeric HA Binding: RLU was measured for TCN-504 (3251_K17) (antibody, V domains shown) VH: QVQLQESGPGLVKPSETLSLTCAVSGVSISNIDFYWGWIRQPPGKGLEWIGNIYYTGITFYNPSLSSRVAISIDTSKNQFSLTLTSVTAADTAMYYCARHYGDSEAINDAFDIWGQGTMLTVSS VL: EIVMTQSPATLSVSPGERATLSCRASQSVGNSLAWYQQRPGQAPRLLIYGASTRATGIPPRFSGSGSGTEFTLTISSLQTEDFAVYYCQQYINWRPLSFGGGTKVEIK ?
26600

I have this binder here, TCN-555 (5246_L16) (antibody, V domains shown) VH: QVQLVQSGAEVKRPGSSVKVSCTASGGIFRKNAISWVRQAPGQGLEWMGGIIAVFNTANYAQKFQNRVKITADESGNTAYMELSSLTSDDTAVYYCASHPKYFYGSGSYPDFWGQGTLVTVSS VL: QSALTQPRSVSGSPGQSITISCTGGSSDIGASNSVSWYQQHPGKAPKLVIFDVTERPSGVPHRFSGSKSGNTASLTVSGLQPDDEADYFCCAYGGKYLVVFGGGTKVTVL , and I need its recorded Trimeric HA Binding: RLU.
36300

# lookup: Trimeric HA Binding: RLU of TCN-553 (5261_C18) (antibody, V domains shown) VH: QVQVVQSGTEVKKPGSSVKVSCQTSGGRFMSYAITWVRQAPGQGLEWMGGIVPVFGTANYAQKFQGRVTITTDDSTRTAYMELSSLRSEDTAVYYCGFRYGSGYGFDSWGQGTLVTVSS VL: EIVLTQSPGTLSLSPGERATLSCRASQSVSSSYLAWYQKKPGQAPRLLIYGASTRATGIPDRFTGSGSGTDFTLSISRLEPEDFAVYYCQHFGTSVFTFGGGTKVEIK
36300

Form field: reported Trimeric HA Binding: RLU of TCN-550 (5096_F06) (antibody, V domains shown) VH: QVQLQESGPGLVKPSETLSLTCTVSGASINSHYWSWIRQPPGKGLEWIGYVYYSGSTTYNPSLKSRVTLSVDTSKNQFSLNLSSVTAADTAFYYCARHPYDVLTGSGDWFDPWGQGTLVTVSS VL: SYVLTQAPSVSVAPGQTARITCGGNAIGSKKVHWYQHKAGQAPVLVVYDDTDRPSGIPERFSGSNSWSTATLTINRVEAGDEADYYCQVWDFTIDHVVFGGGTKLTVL
955
